B1: Intersectin-1, residues 909 to 971; numbered along this chain, Q15811 (parent)
chain: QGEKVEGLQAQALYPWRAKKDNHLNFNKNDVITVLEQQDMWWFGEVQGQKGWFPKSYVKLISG

- Variants of: B1
- test-description: abundance fitness (aPCA) (normalised: wild type 0, dead -1); higher = more abundant; growth selection in yeast, the domain comes from the species named
- run-parameters: Homo sapiens
Kindly note that classification relies on abundance fitness with these boundaries: lower range = under -0.3, middle range = from -0.3 up to -0.1, upper range = -0.1 and over

>>> answer_label("QGEWVEGLQAQALYPWRAKKDNHLNFNKNDVITVLEQQDMWWFGEVQGQKGWFPKSYVKLISG [K4W]")
"upper range"

Query: Sort QGEKVEGLQAQALYPWRAKKDNHLNFNKNDVITVLEWQDMWWFGEVQGQKGWFPKSYVKLISG [Q37W] into one of the categories.
Result: middle range

Query: Sort QGEKVEGLQAQALYPWRAKKDAHLNFNKNDVITVLEQQDMWWFGEVQGQKGWFPKSYVKLISG [N22A] into one of the categories.
Result: middle range

Query: Sort QGEKVESLQAQALYPWRAKKDNHLNFNKNDVITVLEQQDMWWFGEVQGQKGWFPKSYVKLISG [G7S] into one of the categories.
Result: upper range

Query: Sort QGEKVEGLQAQALYPWRAKKDNHLNFNKNDVITVLEQQDMWWFTEVQGQKGWFPKSYVKLISG [G44T] into one of the categories.
Result: lower range

Query: Sort QGEKVEGLQAQALYPWRAKKDNHLNFNKNDVITVLEQQDMWWFGEVQGGKGWFPKSYVKLISG [Q49G] into one of the categories.
Result: upper range

Query: Sort QGEKVEGLQAQALYPWRDKKDNHLNFNKNDVITVLEQQDMWWFGEVQGQKGWFPKSYVKLISG [A18D] into one of the categories.
Result: middle range

Query: Sort QGEKVEGLQAQALYPWRAKKDNHLNFNKNDVITVLEQQDMWWFGEVQGQKGWFPKSYEKLISG [V58E] into one of the categories.
Result: lower range

Query: Sort QGEKVEGLQAQALYPWRAKKDNHLNFNKNDVITVLEQEDMWWFGEVQGQKGWFPKSYVKLISG [Q38E] into one of the categories.
Result: upper range

Query: Sort QGEKVEGLQAQALYPWRAKKDNHLNFNKNDAITVLEQQDMWWFGEVQGQKGWFPKSYVKLISG [V31A] into one of the categories.
Result: middle range

Query: Sort QGEKVEGLQAQALYPWRAKKDNHLNFNKNDVITVLEQQDMWWFGEVQGQKGWFPKSYVKLASG [I61A] into one of the categories.
Result: upper range

Query: Sort QGEKVEGLQAQALYPWRAKKDNHLNFNKNDVITVLEQQDRWWFGEVQGQKGWFPKSYVKLISG [M40R] into one of the categories.
Result: middle range

Query: Sort QGEKVEGLQAQALYPWRAKKDNHLNENKNDVITVLEQQDMWWFGEVQGQKGWFPKSYVKLISG [F26E] into one of the categories.
Result: lower range

Query: Sort QGEKVEGLQAQALYPWRAKKDNHLNFNKNDVITVLEQQDMWWFGEVQGQKGWFPCSYVKLISG [K55C] into one of the categories.
Result: middle range

Query: Sort QGEKVEGLQAPALYPWRAKKDNHLNFNKNDVITVLEQQDMWWFGEVQGQKGWFPKSYVKLISG [Q11P] into one of the categories.
Result: lower range

Query: Sort QGEKVEGLVAQALYPWRAKKDNHLNFNKNDVITVLEQQDMWWFGEVQGQKGWFPKSYVKLISG [Q9V] into one of the categories.
Result: upper range

Query: Sort QGEKVEGLQAQALYPWRAKKDNHLNFNKNDVITVLEQQDMWWFGGVQGQKGWFPKSYVKLISG [E45G] into one of the categories.
Result: middle range

Query: Sort QGEKVEGLQAQALYPWRAKKDNHLNFNKNDVITELEQQDMWWFGEVQGQKGWFPKSYVKLISG [V34E] into one of the categories.
Result: lower range

Query: Sort QGEKVEGLQAQALYPWRAKKDNHLNFNKNDVILVLEQQDMWWFGEVQGQKGWFPKSYVKLISG [T33L] into one of the categories.
Result: middle range

Query: Sort QGEKVEGLQAQALYPWRAKKDNHLNFNTNDVITVLEQQDMWWFGEVQGQKGWFPKSYVKLISG [K28T] into one of the categories.
Result: upper range

Query: Sort QGEKVEGLQAQALYPWRAKKDNHLNFNKNLVITVLEQQDMWWFGEVQGQKGWFPKSYVKLISG [D30L] into one of the categories.
Result: lower range

Query: Sort QGEKVEGLQAQALYPWRAKKDNHLNFNKNDVITVLEPQDMWWFGEVQGQKGWFPKSYVKLISG [Q37P] into one of the categories.
Result: middle range

Query: Sort QGEKVEGLQAQALYPWRAKKDNHLNFNKNDVITVLEQQDMEWFGEVQGQKGWFPKSYVKLISG [W41E] into one of the categories.
Result: lower range

Query: Sort QGEKVEGLQAQALYPWRAKKDNHLNANKNDVITVLEQQDMWWFGEVQGQKGWFPKSYVKLISG [F26A] into one of the categories.
Result: lower range

Query: Sort QGEKVEGLQAQALYPWRAKSDNHLNFNKNDVITVLEQQDMWWFGEVQGQKGWFPKSYVKLISG [K20S] into one of the categories.
Result: upper range

Query: Sort QGEKVEGLQAQALYPWRAKKDNHLNFNKNDVITVLEQQDMWWFGEVQGQKGWFCKSYVKLISG [P54C] into one of the categories.
Result: lower range

Query: Sort QGEKVEGLQAQALYPWRAKKDNHLNFNKNDVITVLEQQDYWWFGEVQGQKGWFPKSYVKLISG [M40Y] into one of the categories.
Result: lower range
